protocol notes: Solubility Test (solubility in water)
Assay type: physicochemical
readout: solubility (µg/mL)

a = O=C(O)[C@@H]1CSC(c2ccccc2O)N1C(=O)CCSSCCC(=O)N1C(c2ccccc2O)SC[C@H]1C(=O)O (some centres unmarked)
b = O=C(O)[C@@H]1CS[C@H](c2ccccc2O)N1C(=O)CCS
Request: Please compare: a and b . Report which one has the smaller solubility value. Write down the label attached to your selection.
Response: a
